Assay: small molecules captured by biotinylated probe aFSTL3 – biochemical, small-molecule microarray, fluorescence 635/667, stem cell growth factor project, primary screen (AID 1064);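 further: measures binding of the biotinylated anti-FSTL3 antibody to printed compounds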
Conditions: higher = more signal
# composite z-score per record follows
Just the number, please.

compound: N#Cc1ccc(NN2C(C(O)C3CC=CCC3)C=CC3C(=O)N(c4ccccc4)C(=O)C32)cc1 (stereo unspecified)
composite z-score: 0.076
//
compound: CC(C)C[C@H]1NC(=O)C([C@@H](C)OCc2ccccc2)NC(=O)[C@@]23C(=O)N[C@@H](Cc4ccccc4)C2[C@H](C)[C@@]2(C)O[C@H]2C3/C=C/C/C=C\CNC1=O (stereo partly specified)
composite z-score: -0.61
//
compound: COC(=O)[C@@]1(Cc2ccc(OC)cc2)[C@H]2c3cc(C(=O)N4CCCC4)n(Cc4ccc(C(F)(F)F)nc4)c3C[C@H]2CN1C(=O)c1ccccc1
composite z-score: 0.308
//
compound: COCCOC(=O)N1C(=O)[C@@]2(c3cc(C#CCC(C(=O)OC)C(=O)OC)ccc31)[C@H](c1ccc(O)cc1)N1[C@H](c3ccccc3)[C@H](c3ccccc3)OC(=O)[C@H]1[C@@H]2C(=O)Nc1nc2ccccc2s1
composite z-score: -0.0882

Recorded composite z-score (compound CC1CC/C=C\[C@H]2OC34C=CCN(c5ccc6ccccc6c5)C(=O)[C@H]3N(C(C)CO)C(=O)[C@@H]4C2C(=O)O1 (stereo partly specified) ): 0.018

Recorded composite z-score (compound `C=C(COC)C(=O)CC[C@@H](OC(=O)c1ccccc1-c1ccccc1C(=O)O)c1ccc(OCCO)cc1` ): -0.209

###

# z-score per record follows
Experiment: JC-1 mitochondrial potential readout, lung cancer cells – cell-based, A549, JC-1 fluorescence, basal, 24 h, 100 nL, profiling panel (AID 1138);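 further: A549 lung adenocarcinoma cells under basal conditions with no added stimulus; test concentration not given here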
Details: higher = more signal
Just the number, please.

Recorded z-score (compound `O=C1O[C@H](c2ccccc2)[C@H](c2ccccc2)N2[C@H]1[C@@H](C(=O)N1CCN(c3ncccn3)CC1)[C@]1(C(=O)Nc3ccc(C#CCCO)cc31)[C@H]2c1ccc(O)cc1` ): -0.683

Recorded z-score (compound Cc1ccc(C(C)CC(O)C2C=CC3C(=O)N(C)C(=O)C3N2Nc2ccccc2)o1 (stereo not drawn) ): 0.16

Recorded z-score (compound `COC(=O)[C@@]1(Cc2ccc(F)cc2)[C@H]2c3cc(C(=O)N4CCCC4)n(CCc4ccccn4)c3C[C@H]2CN1C(=O)c1ccccc1` ): 0.622

Recorded z-score (compound `C[N+](C)(C)CCCCNC(=O)[C@H]1C[C@H]2C(=O)N[C@@H](Cc3ccccc3)C(=O)N2[C@H]1c1cccc(OCCO)c1` ): -0.243

Recorded z-score (compound `C=C(CCCC)C(=O)CC[C@H](OC(=O)c1ccccc1-c1ccccc1C(=O)O)c1ccc(OCCO)cc1` ): 0.128

Recorded z-score (compound C[C@@H]1NC(=O)C([C@@H](C)OCc2ccccc2)NC(=O)[C@@]23C(=O)N[C@@H](Cc4ccccc4)C2[C@H](C)[C@@]2(C)O[C@H]2C3/C=C/C/C=C\CNC1=O (stereo partly drawn) ): -0.0956

Recorded z-score (compound CCCc1cc2c(n1CCc1ccc(Cl)cc1)C(C)C1CN(C(=O)c3ccccc3)C(C)(C(=O)OC)C21 (stereo not drawn) ): 1.25

Recorded z-score (compound `CCOC(=O)C1=CC[C@@H](c2ccc(OC)cc2)N(S(=O)(=O)c2ccc(C)cc2)[C@H]1CC` ): 2.69

Recorded z-score (compound `C=CCOC(=O)[C@H]1[C@@H]2C(=O)O[C@@H](c3ccccc3)[C@@H](c3ccccc3)N2[C@@H](c2ccc(OCCOC(=O)[C@@H]3C[C@@H]4C(=O)N[C@@H](CCCCNC(C)=O)C(=O)N4[C@@H]3c3cccc(OCCO)c3)cc2)[C@]12C(=O)Nc1ccccc12` ): -0.0996

Recorded z-score (compound `C=CCOC(=O)[C@@H]1[C@H]2C(=O)O[C@H](c3ccccc3)[C@H](c3ccccc3)N2[C@H](c2ccc(OCCOC(=O)[C@H]3C[C@H]4C(=O)N5CCC[C@H]5C(=O)N4[C@H]3c3cccc(OCCO)c3)cc2)[C@@]12C(=O)Nc1ccc(I)cc12` ): -1.32

Recorded z-score (compound `O=C1C[C@@](C(=O)O)(c2ccc([N+](=O)[O-])cc2)[C@@H](c2ccc(CO)cc2)N1C1CCCCC1` ): 0.57

Recorded z-score (compound `COC(=O)[C@@]1(Cc2ccc(OC)cc2)[C@H]2c3cc(C(=O)N(C)C)[nH]c3C[C@H]2CN1C(=O)c1ccccc1` ): 0.638

Recorded z-score (compound `O=C1C=C(c2ccccc2)C(=O)C2=C1CC([C@H]1Oc3ccccc3S(=O)(=O)N3CCC[C@@H]13)=CC2` ): -1.32

###

Molecular target: Luciferin 4-monooxygenase (Photinus pyralis) (UniProt P08659)
Sequence (P08659 whole entry, looked up): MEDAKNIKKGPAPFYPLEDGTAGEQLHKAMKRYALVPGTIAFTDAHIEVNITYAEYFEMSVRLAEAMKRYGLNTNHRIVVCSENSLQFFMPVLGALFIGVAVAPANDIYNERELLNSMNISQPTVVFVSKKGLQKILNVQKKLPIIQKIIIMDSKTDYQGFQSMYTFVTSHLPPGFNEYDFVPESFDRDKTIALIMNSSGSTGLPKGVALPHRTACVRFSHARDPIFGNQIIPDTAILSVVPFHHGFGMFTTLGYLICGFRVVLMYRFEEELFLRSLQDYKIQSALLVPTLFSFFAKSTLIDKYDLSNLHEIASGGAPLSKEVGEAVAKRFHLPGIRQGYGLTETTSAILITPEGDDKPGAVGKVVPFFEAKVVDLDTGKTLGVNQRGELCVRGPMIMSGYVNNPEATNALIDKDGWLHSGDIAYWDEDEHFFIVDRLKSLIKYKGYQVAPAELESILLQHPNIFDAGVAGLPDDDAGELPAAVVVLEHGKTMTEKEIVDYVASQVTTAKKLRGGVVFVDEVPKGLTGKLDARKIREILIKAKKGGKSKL
Assay: inhibition of purified Photinus pyralis luciferase – biochemical, luminescence, purified enzyme, 2006 set, primary screen (AID 1141);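 further: cell-free assay with purified firefly luciferase at 100 ng per well in PBS; test concentration not given here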
Settings: purified firefly luciferase, SteadyGlo luminescence, 30 min; higher = more signal, called active from +8 up or from −8 down
# z-score per record follows
Just the number, please.

Recorded z-score (molecule C=CCC(OC(C)=O)[C@@H]1[C@@H](N(Cc2ccc(-c3cccc(C(F)(F)F)c3)o2)C(=O)c2ccc(-c3ccccc3)cc2)c2cc(OCCCO)ccc2N1C(=O)c1ccc2ccccc2c1 (some centres not stated) ): 0.85

Recorded z-score (molecule `CC(C)C[C@@H]1NC(=O)[C@@H]2C[C@H](C(=O)NCCCCCCNC(=O)CS)[C@H](c3cccc(OCCO)c3)N2C1=O` ): -0.986

Recorded z-score (molecule `COC(=O)C(CC#Cc1ccc2c(c1)[C@]1(C(=O)N2)[C@H](C(=O)NC[C@H](O)c2ccccc2)[C@H]2C(=O)O[C@H](c3ccccc3)[C@H](c3ccccc3)N2[C@@H]1c1ccccc1OCCO)C(=O)OC` ): 0.742

Recorded z-score (molecule `COC(=O)[C@@]1(Cc2ccccc2)[C@H]2c3cc(C(=O)N(C)C)n(Cc4ccc(C(F)(F)F)nc4)c3C[C@H]2CN1C(=O)c1ccccc1` ): 2.32

Recorded z-score (molecule COc1cc(C(O)C2C=CC3C(=O)N(c4ccccc4)C(=O)C3N2Nc2ccccc2F)cc(OC)c1OC (configuration not stated) ): -0.397

Recorded z-score (molecule `COC(=O)[C@@]1(Cc2ccccc2)[C@H]2c3cc(C(=O)N(C)C)n(CCO)c3C[C@H]2CN1C(=O)c1ccccc1` ): 2.11

Recorded z-score (molecule `COCCCNC(=O)[C@@]1(CCC(=O)OC(C)(C)C)COC(c2ccc(OCCCO)cc2)=N1` ): 0.75

###

Test system: wheat germ agglutinin (Triticum aestivum), Alexa647-labelled
Experiment: Alexa647-WGA lectin binding to printed small molecules – biochemical, small-molecule microarray, 635/667 nm fluorescence, artefact control for SMM control-protein annotation, profiling panel (AID 1140);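 further: score merges 667 nm feature emission with signal to noise over triplicate slides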
Conditions: WGA-A647 binding, 635 nm fluorescence, higher = more signal
# composite z-score per record follows
Just the number, please.

compound: C=CCC(OC(C)=O)[C@@H]1[C@@H](N(Cc2ccc(-c3cccc(C(F)(F)F)c3)o2)C(=O)Cc2ccc(F)cc2)c2cc(OCCCO)ccc2N1C(=O)Cc1ccc2ccccc2c1 (stereo not given in full)
measured target: wheat germ agglutinin (Triticum aestivum), Alexa647-labelled
composite z-score: 0.0382

Recorded composite z-score (compound `CC(C)NC(=O)[C@@H]1c2ccccc2C(=O)N(Cc2ccc(OC(F)(F)F)cc2)[C@H]1c1ccc(CO)cc1` ): 0.45

Recorded composite z-score (compound `Cc1ccc(S[C@]2(C(=O)NCCCN(C)C)CC(=O)N(C3Cc4ccccc4C3)[C@@H]2c2ccc(CO)cc2I)cc1` ): 0.0805

Recorded composite z-score (compound `Cc1ccc(S[C@]2(C(=O)NC3CC3)CC(=O)N(C(C)C)[C@@H]2c2ccc(CO)cc2I)cc1` ): 0.969

###

Biological target: Albumin (Bos taurus)
Test: compounds binding labelled BSA control protein – biochemical, small-molecule microarray, Alexa647 label, 635/667 nm fluorescence, artefact control for SMM control protein annotation, profiling panel (AID 1118);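 further: score merges 667 nm emission intensity and signal-to-noise per printed compound spot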
Settings: BSA-A647 binding, fluorescence 635 nm, higher = more signal
Class satisfied: composite z-score at least 0.7. Class not satisfied: composite z-score below 0.7.

Please review the following examples before continuing.
compound: CCCCN1CC=CC23O[C@@H]4/C=C\CCCOC(=O)C4[C@H]2C(=O)N(C(CO)C(C)C)[C@@H]3C1=O (stereo not given in full)
classification: not satisfied
//
compound: CCCC=C(CCC)[C@@H](NC(=O)OCC(C)C)c1ccc(C(=O)OC)cc1
classification: not satisfied
//
compound: COC(=O)[C@@]1(Cc2ccc(OC)cc2)[C@H]2c3cc(C(=O)N4CCCC4)n(Cc4c(CO)[nH]cc(C)c4=O)c3C[C@H]2CN1C(=O)c1ccccc1
classification: satisfied
//
compound: NCCCCCCNC(=O)[C@@H]1C[C@@H]2C(=O)N3CCC[C@H]3C(=O)N2[C@@H]1c1cccc(OCCO)c1
classification: satisfied
//
compound: C=C(COC)C(=O)CC[C@H](OC(=O)c1cccnc1)c1ccc(OCCO)cc1
classification: not satisfied

# check: composite z-score of `CC(C)N1C(=O)c2ccccc2[C@](C)(C(=O)NCC(F)(F)F)[C@@H]1c1ccc(CO)cc1` is greater than or equal to 0.7
not satisfied

# check: composite z-score of COc1ccc(C(O)C2C=CC3C(=O)N(c4ccccc4)C(=O)C3N2Nc2ccc([N+](=O)[O-])cc2)c2ccccc12 (stereo not given) is greater than or equal to 0.7
satisfied

# check: composite z-score of `COc1ccc([Si](C)(C)[C@@H]2[C@@H](CC(=O)N(CCO)Cc3ccccc3)O[C@]3(C(=O)N(Cc4ccc(N5C(=O)c6cccc7cccc5c67)cc4)c4ccccc43)[C@H]2C)cc1` is greater than or equal to 0.7
not satisfied

# check: composite z-score of Cc1ccccc1C(O)C1C=CC2C(=O)N(c3ccccc3)C(=O)C2N1Nc1ccccc1 (stereo not given) is greater than or equal to 0.7
satisfied

# check: composite z-score of `COc1ccc([Si](C)(C)[C@@H]2[C@@H](CC(=O)N3Cc4ccccc4C[C@H]3CO)O[C@]3(C(=O)N(Cc4ccc(N5CCOC5=O)cc4)c4ccccc43)[C@H]2C)cc1` is greater than or equal to 0.7
not satisfied

# check: composite z-score of CC1CC/C=C\[C@H]2OC34C=CCN(c5ccc6ccccc6c5)C(=O)[C@H]3N(C(C)CO)C(=O)[C@@H]4C2C(=O)O1 (stereo not given in full) is greater than or equal to 0.7
not satisfied

# check: composite z-score of CCCCC(O)C1C=CC2C(=O)N(c3ccccc3)C(=O)C2N1Nc1ccc([N+](=O)[O-])cc1 (stereo not given) is greater than or equal to 0.7
satisfied

# check: composite z-score of `C=CCN1C(=O)[C@]2(O[C@H](CCn3cc([C@H](O)c4ccccc4)nn3)[C@@H]([Si](C)(C)c3ccc(OC)cc3)[C@@H]2C)c2cc(NC(=O)c3ccc(OC)cc3)ccc21` is greater than or equal to 0.7
not satisfied
